- Test system: ducksalad (Heteranthera limosa)
- test-summary: Test C flooded paddy test plant response
- Assay type: in vivo
- settings: Flood, 250 g ai/ha; scale of 0 to 100 where 0 is no effect and 100 is complete control; 13 to 15 days
reported-metric: Ducksalad plant response rating
# respond with the number and nothing more

> print(dat)
                                   compound               measurement.target                  reported.metric  endpoint.result
1  Fc1cnc(Oc2ccccc2-c2cc(C(F)F)no2)nc1 [Compound 210]  ducksalad (Heteranthera limosa)  Ducksalad plant response rating               85
2  Clc1cnc(Oc2ccccc2-c2nccs2)nc1 [Compound 199]  ducksalad (Heteranthera limosa)  Ducksalad plant response rating                0
3  Cc1cc(-c2ccccc2Oc2ncc(Cl)cn2)no1 [Compound 153]  ducksalad (Heteranthera limosa)  Ducksalad plant response rating                0
4  Cc1ccc(Oc2ncc(Cl)cn2)c(-c2cccc(OC(F)(F)F)c2)c1 [Compound 44]  ducksalad (Heteranthera limosa)  Ducksalad plant response rating                0
5  COc1ccnc(-c2ccccc2Oc2ncc(Cl)cn2)c1 [Compound 219]  ducksalad (Heteranthera limosa)  Ducksalad plant response rating                0

Task: Recorded Ducksalad plant response rating for CC(=O)c1cc(-c2ccccc2Oc2ncc(Cl)cn2)on1 [Compound 218] , please?
Output: 0

Task: Try Fc1ccnc(-c2ccccc2Oc2ncc(Cl)cn2)c1 [Compound 175] next.
Output: 0

Task: Try N#Cc1cc(-c2ccccc2Oc2ncc(Cl)cn2)on1 [Compound 223] next.
Output: 65

Task: Try Cn1nnc(-c2ccccc2Oc2ncc(Cl)cn2)n1 [Compound 48] next.
Output: 0

Task: Try Cn1ccnc1-c1ccccc1Oc1ncc(Cl)cn1 [Compound 151] next.
Output: 0
